Kindly supply the reported viability, T/C values for the records listed here.
System: 624824-186-R-J3-PDC multicell spheroids, viability
Test: Anticancer human tumor 624824-186-R-J3-PDC patient-derived colon adenocarcinoma cell line growth inhibition [PI3K]
Details: second compound 0.00316 µM; first compound 0.316 µM; hits give low values
Description: Combinatorial screen of targeted agents with the PI3K inhibitors inavolisib, alpelisib, duvelisib, and copanlisib in multi-cell type tumor spheroids A high-throughput screen of multi-cell type tumor spheroids was designed to identify active combinations of targeted small molecules and PI3K pathway inhibitors. […] Compounds. […] If the clinical Cmax for an agent had not been determined, the highest concentration tested was 10 microM. […]
Answers are plain numbers, in %.

// solved cases for viability, T/C follow
Input line: Please report the recorded viability, T/C for CC1(C)CCC(Nc2ncc(C(F)(F)F)c(-c3c[nH]c4c(P(C)(C)=O)c(C#N)ccc34)n2)CN1 (stereo not given) + COc1c(OCCCN2CCOCC2)ccc2c3n(c(=NC(=O)c4cnc(N)nc4)nc12)CCN3 .
Output line: 87.1

Input line: Please report the recorded viability, T/C for CC1(C)CCC(CN2CCN(c3ccc(C(=O)NS(=O)(=O)c4ccc(NCC5CCOCC5)c([N+](=O)[O-])c4)c(Oc4cnc5[nH]ccc5c4)c3)CC2)=C(c2ccc(Cl)cc2)C1 + CC(Nc1ccc2c(c1)OCCn1cc(N3C(=O)OCC3C(F)F)nc1-2)C(N)=O .
Output line: 102

Input line: Please report the recorded viability, T/C for Cn1ncc(Cl)c1-c1cc(C(=O)NC(CN)Cc2cccc(F)c2)sc1Cl (stereo not given) + CC(Nc1ccc2c(c1)OCCn1cc(N3C(=O)OCC3C(F)F)nc1-2)C(N)=O .
Output line: 103

Input line: Please report the recorded viability, T/C for Cn1ncc(Cl)c1-c1cc(C(=O)NC(CN)Cc2cccc(F)c2)sc1Cl (stereo not given) + COc1c(OCCCN2CCOCC2)ccc2c3n(c(=NC(=O)c4cnc(N)nc4)nc12)CCN3 .
Output line: 92

New cases:
Input line: Please report the recorded viability, T/C for CC(Cn1ccc(-c2ccc(C#N)c(Cl)c2)n1)NC(=O)c1cc(C(C)O)[nH]n1 (stereo not given) + COc1c(OCCCN2CCOCC2)ccc2c3n(c(=NC(=O)c4cnc(N)nc4)nc12)CCN3 .
Output line: 101

* * *

Tested on: 624824-186-R-J3-PDC multicell spheroids, viability
Assay: Anticancer human tumor 624824-186-R-J3-PDC cell line growth inhibition [PI3K];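 also: luminescent signal used as a stand-in for spheroid viability; spheroids exposed to agents for seven days before luminescence read; percent viability relative to DMSO vehicle control wells taken as 100%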
Details: second compound 0.01 µM; first compound 0.316 µM; hits give low values
quantityName: viability, T/C (%)
Answers are plain numbers, in %.

// solved cases for viability, T/C follow
Input line: What viability, T/C appears in the records for this compound with 624824-186-R-J3-PDC multicell spheroids, viability? C#Cc1c(F)ccc2cc(O)cc(-c3ncc4c(N5CC6CCC(C5)N6)nc(OCC56CCCN5CC(F)C6)nc4c3F)c12 (centres undefined) + COc1c(OCCCN2CCOCC2)ccc2c3n(c(=NC(=O)c4cnc(N)nc4)nc12)CCN3
Output line: 102

Input line: What viability, T/C appears in the records for this compound with 624824-186-R-J3-PDC multicell spheroids, viability? CC(C)NCC(C(=O)N1CCN(c2ncnc3c2C(C)CC3O)CC1)c1ccc(Cl)cc1 (centres undefined) + COc1c(OCCCN2CCOCC2)ccc2c3n(c(=NC(=O)c4cnc(N)nc4)nc12)CCN3
Output line: 101

Input line: What viability, T/C appears in the records for this compound with 624824-186-R-J3-PDC multicell spheroids, viability? CC1(C)CCC(Nc2ncc(C(F)(F)F)c(-c3c[nH]c4c(P(C)(C)=O)c(C#N)ccc34)n2)CN1 (centres undefined) + COc1c(OCCCN2CCOCC2)ccc2c3n(c(=NC(=O)c4cnc(N)nc4)nc12)CCN3
Output line: 76.6

Input line: What viability, T/C appears in the records for this compound with 624824-186-R-J3-PDC multicell spheroids, viability? CCCS(=O)(=O)Nc1ccc(F)c(C(=O)c2c[nH]c3ncc(-c4ccc(Cl)cc4)cc23)c1F + CC(Nc1ccc2c(c1)OCCn1cc(N3C(=O)OCC3C(F)F)nc1-2)C(N)=O
Output line: 86.9

Input line: What viability, T/C appears in the records for this compound with 624824-186-R-J3-PDC multicell spheroids, viability? CC1(C)CCC(CN2CCN(c3ccc(C(=O)NS(=O)(=O)c4ccc(NCC5CCOCC5)c([N+](=O)[O-])c4)c(Oc4cnc5[nH]ccc5c4)c3)CC2)=C(c2ccc(Cl)cc2)C1 + CC(Nc1ccc2c(c1)OCCn1cc(N3C(=O)OCC3C(F)F)nc1-2)C(N)=O
Output line: 99.5

Consider the following items and state reported viability, T/C for each.
1. CC(Cn1ccc(-c2ccc(C#N)c(Cl)c2)n1)NC(=O)c1cc(C(C)O)[nH]n1 (centres undefined) + CC(Nc1ccc2c(c1)OCCn1cc(N3C(=O)OCC3C(F)F)nc1-2)C(N)=O
2. CC(C)NCC(C(=O)N1CCN(c2ncnc3c2C(C)CC3O)CC1)c1ccc(Cl)cc1 (centres undefined) + CC(Nc1ccc2c(c1)OCCn1cc(N3C(=O)OCC3C(F)F)nc1-2)C(N)=O
3. C#Cc1c(F)ccc2cc(O)cc(-c3ncc4c(N5CC6CCC(C5)N6)nc(OCC56CCCN5CC(F)C6)nc4c3F)c12 (centres undefined) + CC(Nc1ccc2c(c1)OCCn1cc(N3C(=O)OCC3C(F)F)nc1-2)C(N)=O
4. CCCS(=O)(=O)Nc1ccc(F)c(C(=O)c2c[nH]c3ncc(-c4ccc(Cl)cc4)cc23)c1F + COc1c(OCCCN2CCOCC2)ccc2c3n(c(=NC(=O)c4cnc(N)nc4)nc12)CCN3

Output line:
1. 115
2. 99.4
3. 97.1
4. 84.8
